System: NCI/ADR-RES ovarian
test details: NCI tumour cell line growth inhibition, 48 h; in the data active = GI50 below about 0.43 µM; inactive = the rest
Possible outcomes: 1 = active, -1 = inactive

CC12OC(C(=O)C13CC3)C1C(=O)c3ccc4c(ccc5ccccc54)c3C(=O)C12 (stereo not drawn)	-1
Nc1nc(Nc2cccnc2)sc1C(=O)c1ccccc1F	-1
CC/C=C\C[C@H](O)C/C=C1/C(=O)C=C[C@@H]1C/C=C\CCCC(=O)OC	-1
COCC[C@H]1CCC/C=C/[C@@H]2C[C@H](O)C[C@H]2[C@H](O)/C=C/C(=O)O1	1
CCCCC(CC)COC(=O)C[N+](C)(C)CCOC(c1ccccc1)c1ccccc1 (stereo not drawn)	-1
COc1ccc(C(=O)c2cc(C)c(OC)c(C)c2)cc1OC(=O)CCl	1
CCCC(CCC)NCC(O)c1cc(-c2ccc(C(F)(F)F)cc2)nc(C(F)(F)F)c1 (stereo not drawn)	-1
O=S(=O)(c1ccc(NC(=S)NC23CC4CC(CC(C4)C2)C3)cc1)N1CCCCC1	-1
